System: CCRF-CEM (ALL)
Measurement Description: cells
Type: cell-based
Condition: Homo sapiens, 72 h treatment, AlamarBlue
Measured pIC50, listed per entry.
Scale explanation: pIC50 corresponds to minus log10 of a concentration expressed in moles per litre.

{"columns": ["Compound", "Endpoint Result"],
 "data": [
  ["C[C@H](NP(=O)(Oc1ccccc1)OP(=O)(O)OC[C@H]1O[C@@H](n2cnc3c(N)nc(Cl)nc32)C(F)[C@H]1O)C(=O)OCc1ccccc1 (stereo partly drawn)", 7.08]
]}

### Prompt // returns reported pIC50 for input C[C@H](NP(=O)(OC[C@H]1O[C@@H](n2cnc3c(N)nc(Cl)nc32)C(F)[C@H]1O)Oc1ccccc1)C(=O)OCc1ccccc1 (stereo partly drawn)
### Response 6.56

### Prompt // returns reported pIC50 for input C[C@H](NP(=O)(Oc1ccccc1)OP(=O)(O)OP(=O)(O)OC[C@H]1O[C@@H](n2cnc3c(N)nc(Cl)nc32)C(F)[C@H]1O)C(=O)OCc1ccccc1 (stereo partly drawn)
### Response 7.10

* * *

Tested on: HT29
Measurement Description: In vitro viability assay, CellTiterGlo, 72 h (Example A)
Type: cell-based
Condition: Homo sapiens, HT-29, read-out: Ab EC50
Measured pEC50, listed per entry.
Scale explanation: pEC50 corresponds to minus log10 of a concentration expressed in moles per litre.

{"columns": ["Compound", "pEC50"],
 "data": [
  ["C[C@H](NP(=O)(OC[C@H]1O[C@@H](n2cnc3c(N)nc(Cl)nc32)C(F)[C@H]1O)Oc1ccccc1)C(=O)OCc1ccccc1 (some centres unmarked)", 5.76]
]}

As a next step, examine the compound that follows.
### Prompt // returns reported pEC50 for input C[C@H](NP(=O)(Oc1ccccc1)OP(=O)(O)OP(=O)(O)OC[C@H]1O[C@@H](n2cnc3c(N)nc(Cl)nc32)C(F)[C@H]1O)C(=O)OCc1ccccc1 (some centres unmarked)
### Response 6.30

* * *

Test system: CCRF-CEM
Measurement Description: In vitro viability assay, CellTiterGlo, 72 h (Example A)
Format: cell-based
Condition: Homo sapiens, read-out: Ab EC50
Measurement Name: pEC50
Scale explanation: pEC50 corresponds to minus log10 of a concentration expressed in moles per litre.

### Prompt Form field - read-out: pEC50; system: CCRF-CEM; submitted item: C[C@H](NP(=O)(OC[C@H]1O[C@@H](n2cnc3c(N)nc(Cl)nc32)C(F)[C@H]1O)Oc1ccccc1)C(=O)OCc1ccccc1 (some centres unmarked)
### Response 7.10
